- target under test: Influenza virus A/Indonesia/5/2005/PR8-IBCDC-RG2 (H5N1) (Influenza A virus A/Indonesia/5/2005/PR8-IBCDC-RG2 (H5N1))
- run description: cell-based or functional assay

binder: Group 65 representative clone F083-366, Fab-PP-type antibody (Fab, V domains shown) VH: QVQLVQSGSEVKKPGSSVKVSCKASRGIFSSYAISWVRQAPGQGLEWMGAVIPMFGTLKYAENFQGRITISADKSMSAAYMELSSLRSEDTAVYYCARNYYGSGTYFNDAFDIWGQGTMVTVSS VL: QSVLTQPPSGSGAPGQRVTISCTGGNSNIGAGYDVNGYQQLPGKAPKLLIYGNNNRPSGVPDRFSGSKSGTSASLAITGLQVEDEAHYYCQSYDNGLSGSVFGGGTQLTVLG
Neutralizing activity (%) at 100 µg/ml: -0.8%
--
binder: Group 59 representative clone F083-351, Fab-PP-type antibody (Fab, V domains shown) VH: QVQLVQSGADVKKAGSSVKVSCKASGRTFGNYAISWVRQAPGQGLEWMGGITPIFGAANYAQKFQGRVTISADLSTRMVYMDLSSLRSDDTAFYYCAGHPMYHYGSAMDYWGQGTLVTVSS VL: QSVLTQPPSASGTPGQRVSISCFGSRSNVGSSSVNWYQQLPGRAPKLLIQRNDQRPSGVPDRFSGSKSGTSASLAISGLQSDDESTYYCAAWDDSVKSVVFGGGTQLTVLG
Neutralizing activity (%) at 100 µg/ml: -2.7%
--
binder: Group 63 representative clone F083-336, Fab-PP-type antibody (Fab, V domains shown) VH: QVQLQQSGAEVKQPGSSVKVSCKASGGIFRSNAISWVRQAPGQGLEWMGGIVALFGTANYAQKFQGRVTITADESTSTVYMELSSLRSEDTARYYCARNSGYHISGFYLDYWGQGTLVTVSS VL: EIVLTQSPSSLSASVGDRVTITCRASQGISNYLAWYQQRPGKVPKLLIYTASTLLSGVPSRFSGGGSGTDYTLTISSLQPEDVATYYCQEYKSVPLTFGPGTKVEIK
Neutralizing activity (%) at 100 µg/ml: 98.8%
